Values compiled from PubChem BioAssay (EPA / NIEHS).

# Read-out: urokinase plasminogen activator (uPA), PLAU (gene 5328)
# assay: BSK_BE3C_uPA: BioMAP Diversity Plus: BE3C Assay for urokinase plasminogen activator (uPA) Biomarker Activity (AID 2283038);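 for outcome: uPA protein level quantified by ELISA in cell cultures; uPA read one day after compound addition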
# run-parameters: primary human bronchial epithelial cells; actives raise or lower the signal
Activity calls are given as the source filed them. Rule for the calls: active = hit-call score of the fitted dose curve at least 0.9, where 1 is the maximum; inactive = score below 0.9.
Select the matching outcome among active, inactive

Consider the worked cases shown below.
>>> category_label("CCOCN(C(=O)CCl)c1c(C)cccc1CC")
"inactive"
>>> category_label("Oc1cc(Cl)ccc1Oc1ccc(Cl)cc1Cl")
"active"
>>> category_label("CC(C)(C)C(O)/C(=C\\c1ccc(Cl)cc1Cl)n1cncn1 (stereo not given)")
"active"

Hey, what did the test say about COP(=S)(OC)Oc1ccc(SC)c(C)c1 ?
inactive

Check the results log: what was the call for COC(=O)c1ccccc1CS(=O)(=O)NC(=O)Nc1nc(OC)cc(OC)n1 ?
inactive

Outcome? C[C@H]1[C@H](c2ccc(Cl)cc2)SC(=O)N1C(=O)NC1CCCCC1
inactive

For this compound, state the assay outcome: O=S1OCC2C(CO1)C1(Cl)C(Cl)=C(Cl)C2(Cl)C1(Cl)Cl (stereo not given)
active

Which result was noted for this compound in the test: CCS(=O)(=O)c1cccnc1S(=O)(=O)NC(=O)Nc1nc(OC)cc(OC)n1
inactive

# lookup: test call for CN1CSC(=S)N(C)C1
inactive

Query: recorded result category for CCCN(CCOc1c(Cl)cc(Cl)cc1Cl)C(=O)n1ccnc1 in this test
active

Assay result, entry CNC(=O)/C=C(\C)OP(=O)(OC)OC — outcome?
inactive

Tell me the assay call for CCN(CC)C(=O)SCc1ccc(Cl)cc1 please.
inactive

Record lookup: outcome of this test for Clc1ccccc1-c1nnc(-c2ccccc2Cl)nn1 ?
inactive

Fill in: this test's call for CCC(C)(C)C(=O)OC1=C(c2ccc(Cl)cc2Cl)C(=O)OC12CCCCC2 is ___
active

Can you look up the reported call for O=C(O)COc1ccc(Cl)cc1Cl for me?
inactive

Recorded call for O=C(O)C(F)(F)C(F)(F)C(F)(F)C(F)(F)C(F)(F)C(F)(F)C(F)(F)F ?
inactive

// return assay outcome for COP(=O)(OC)OC=C(Cl)Cl
inactive

How did this test come out for ClC1C(Cl)C(Cl)C(Cl)C(Cl)C1Cl (stereo not given) ?
inactive
